# TARGET UNDER TEST: human RXFP1 (Homo sapiens, UniProt Q9HBX9)
# Sequence (Q9HBX9 whole entry): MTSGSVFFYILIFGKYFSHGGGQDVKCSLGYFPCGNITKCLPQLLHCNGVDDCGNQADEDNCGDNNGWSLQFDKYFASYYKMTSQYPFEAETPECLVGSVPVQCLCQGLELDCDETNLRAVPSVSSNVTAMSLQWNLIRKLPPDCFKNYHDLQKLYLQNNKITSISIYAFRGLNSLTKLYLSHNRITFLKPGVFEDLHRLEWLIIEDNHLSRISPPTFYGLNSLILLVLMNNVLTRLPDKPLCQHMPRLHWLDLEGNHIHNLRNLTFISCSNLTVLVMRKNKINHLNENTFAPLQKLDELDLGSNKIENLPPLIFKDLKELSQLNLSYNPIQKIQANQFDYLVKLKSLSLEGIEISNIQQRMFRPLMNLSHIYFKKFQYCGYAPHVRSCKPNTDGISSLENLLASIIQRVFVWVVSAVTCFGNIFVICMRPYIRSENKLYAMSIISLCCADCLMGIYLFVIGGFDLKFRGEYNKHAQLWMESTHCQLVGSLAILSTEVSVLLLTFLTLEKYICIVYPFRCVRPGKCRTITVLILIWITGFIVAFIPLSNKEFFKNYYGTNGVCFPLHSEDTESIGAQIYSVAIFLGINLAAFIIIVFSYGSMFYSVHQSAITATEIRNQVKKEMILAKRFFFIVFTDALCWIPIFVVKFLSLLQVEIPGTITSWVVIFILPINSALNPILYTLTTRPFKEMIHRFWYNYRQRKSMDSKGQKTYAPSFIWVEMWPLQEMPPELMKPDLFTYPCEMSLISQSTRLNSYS
# ASSAY PROCEDURE: hRXFP1 HEK293 cAMP assay (HTRF)
# CONDITION SET: HEK293 cells stably expressing human RXFP1, 30 min at room temperature
RECORDED ENDPOINT: log10 EC50 (log10 of the value in nM)
Log10 applied to EC50; unit prior to transform: nM.

Solved entries:
COc1ccc(C2CC(C(C)(C)O)C2)cc1C(=O)N[C@H]1[C@@H](C(=O)Nc2ccc(F)c(C(F)(F)F)c2)[C@H]2CC[C@@H]1/C2=C\C1CCCC1 (stereo partly shown) ... 0.59
COc1ccc(CC[C@H](C)O)cc1C(=O)N[C@@H]1C2CCC(/C2=C/C2CC2)[C@@H]1C(=O)Nc1ccc(F)c(C(F)(F)F)c1 (stereo partly shown) ... 1.79
COC(=O)[C@@H]1CCN(C(=O)Cc2ccc(OC)c(C(=O)NC3C(C(=O)Nc4ccc(F)c(C(F)(F)F)c4)[C@H]4CC[C@@H]3/C4=C\C3CC3)c2)C1 (stereo partly shown) ... 3.60

Look up log10 EC50 with human RXFP1 (Homo sapiens, UniProt Q9HBX9) for this compound: COc1ccc(S(C)(=O)=O)cc1C(=O)N[C@@H]1C2CCC(C2=C(C)C)[C@@H]1C(=O)Nc1ccc(F)c(C(F)(F)F)c1 (stereo partly shown)
3.41

human RXFP1 (Homo sapiens, UniProt Q9HBX9) / log10 EC50 / COc1ccc(CCC(=O)NCC(F)(F)F)cc1C(=O)NC1C2CCC(/C2=C/C(F)(F)F)[C@@H]1C(=O)Nc1ccc(F)c(C(F)(F)F)c1 (stereo partly shown) : value?
2.92

Recorded log10 EC50 for COc1ccc(Nc2ccccc2)cc1C(=O)N[C@H]1[C@@H](C(=O)Nc2ccc(F)c(C(F)(F)F)c2)[C@H]2CC[C@@H]1/C2=C\C1CC1 with human RXFP1 (Homo sapiens, UniProt Q9HBX9), please?
2.45

Item: COc1ccc(C2CCCC(NC(=O)C3CCOCC3)C2)cc1C(=O)N[C@@H]1C2CCC(/C2=C/C(F)(F)F)[C@@H]1C(=O)Nc1ccc(F)c(C(F)(F)F)c1 (single isomer, unassigned) [Example 51] Test system: human RXFP1 (Homo sapiens, UniProt Q9HBX9) Read-out: log10 EC50 Value: ?
3.37

Lab note: need log10 EC50 for COc1ccc(C(=O)NCCS(C)(=O)=O)cc1C(=O)N[C@H]1[C@@H](C(=O)Nc2ccc(F)c(C(F)(F)F)c2)[C@H]2CC[C@@H]1/C2=C\C1CC1 on human RXFP1 (Homo sapiens, UniProt Q9HBX9), anyone have it?
1.08

// map COc1ccc(CCC(N)=O)cc1C(=O)NC1C2CCC(/C2=C/C(F)(F)F)[C@@H]1C(=O)Nc1ccc(F)c(C(F)(F)F)c1 (stereo partly shown) to recorded log10 EC50 (system: human RXFP1 (Homo sapiens, UniProt Q9HBX9))
2.87

I'm curious: which log10 EC50 was measured for COc1ccc(COC2(C(=O)O)CC2)cc1C(=O)N[C@@H]1C2CCC(/C2=C/C2CC2)[C@@H]1C(=O)Nc1ccc(F)c(C(F)(F)F)c1 (stereo partly shown) tested on human RXFP1 (Homo sapiens, UniProt Q9HBX9)?
2.09

Item COc1ccc(CCCO)cc1C(=O)NC1C2CCC(/C2=C/C2CCOCC2)[C@@H]1C(=O)Nc1ccc(F)c(C(F)(F)F)c1 (stereo partly shown) with human RXFP1 (Homo sapiens, UniProt Q9HBX9) - log10 EC50?
2.34

Form field - read-out: log10 EC50; system: human RXFP1 (Homo sapiens, UniProt Q9HBX9); submitted item: COc1ccc(CCCO)cc1C(=O)NC1C2CCC(/C2=C/C2CCCC2)[C@@H]1C(=O)Nc1ccc(F)c(C(F)(F)F)c1 (stereo partly shown)
1.04

# query: log10 EC50 | item COc1ccc(COC2CCC(O)CC2)cc1C(=O)N[C@H]1[C@@H](C(=O)Nc2ccc(F)c(C(F)(F)F)c2)[C@H]2CC[C@@H]1/C2=C\C1CC1 (stereo partly shown) [Example 290] | system: human RXFP1 (Homo sapiens, UniProt Q9HBX9)
1.88

Which measured log10 EC50 belongs to COCC/C=C1\C2CCC1[C@H](C(=O)Nc1ccc(F)c(C(F)(F)F)c1)C2NC(=O)c1cc(CCCO)ccc1OC (stereo partly shown) , tested on human RXFP1 (Homo sapiens, UniProt Q9HBX9)?
3.06

What log10 EC50 appears in the records for this compound with human RXFP1 (Homo sapiens, UniProt Q9HBX9)? COc1ccc(CO)cc1C(=O)N[C@H]1[C@@H](C(=O)Nc2ccc(F)c(C(F)(F)F)c2)[C@H]2CC[C@@H]1/C2=C\C(F)(F)F
2.98

Provide the documented log10 EC50 with human RXFP1 (Homo sapiens, UniProt Q9HBX9) as the system for COc1c(F)cc(C(=O)NCC2(S(C)(=O)=O)CC2)cc1C(=O)N[C@H]1[C@@H](C(=O)Nc2ccc(F)c(C(F)(F)F)c2)[C@H]2CC[C@@H]1/C2=C\C1CC(F)(F)C1
0.84

====

We begin with a simple list: items and their reported pEC50.
# TARGET UNDER TEST: human RXFP1 (Homo sapiens, UniProt Q9HBX9)
# ASSAY PROCEDURE: hRXFP1 HEK293 cAMP assay (HTRF)
# CONDITION SET: HEK293 cells stably expressing human RXFP1, 30 min at room temperature
A value of pEC50 is the negative decimal logarithm of a concentration given in moles per litre.

Examples with answers:
COc1ccc(C(=O)NCC2(S(C)(=O)=O)CC2)cc1C(=O)N[C@H]1[C@@H](C(=O)Nc2ccc(F)c(C(F)(F)F)c2)[C@H]2CC[C@@H]1/C2=C\C1CC1 ... 9.02
COc1ccc(S(=O)(=O)N2CCOC[C@H]2CO)cc1C(=O)N[C@H]1[C@@H](C(=O)Nc2ccc(F)c(C(F)(F)F)c2)[C@H]2CC[C@@H]1/C2=C\C1CC1 ... 7.10

Param readout = pEC50; param system = human RXFP1 (Homo sapiens, UniProt Q9HBX9); param query = COc1ccc(COC2C[C@@H](O)[C@@H](O)C2)cc1C(=O)N[C@H]1[C@@H](C(=O)Nc2ccc(F)c(C(F)(F)F)c2)[C@H]2CC[C@@H]1/C2=C\C1CC1 (stereo partly drawn) ; response: value
8.08

====

# TARGET UNDER TEST: human RXFP1 (Homo sapiens, UniProt Q9HBX9)
# ASSAY PROCEDURE: hRXFP1 HEK293 cAMP assay (HTRF)
# CONDITION SET: HEK293 cells stably expressing human RXFP1, 30 min at room temperature
RECORDED ENDPOINT: pEC50
In textbook form, pEC50 equals minus log to base ten of the concentration in mol/L.

COc1ccc(COc2ccccc2)cc1C(=O)N[C@@H]1C2CCC(/C2=C/C(F)(F)F)[C@@H]1C(=O)Nc1ccc(F)c(C(F)(F)F)c1 (some centres unmarked) ... 6.85

Form field: reported pEC50 of COc1ccc(CCCCCC#N)cc1C(=O)NC1C2CCC(/C2=C/C2CCC2)[C@@H]1C(=O)Nc1ccc(F)c(C(F)(F)F)c1 (some centres unmarked)
7.64

Reported pEC50, compound COc1ccc(CCC(C)(C)O)cc1C(=O)N[C@H]1[C@@H](C(=O)NCC(C)(C)C)[C@H]2CC[C@@H]1/C2=C\C1CC1 : ____
6.58

Fill blank: measured pEC50 of the compound COc1ccc(CCC(C)(C)O)cc1C(=O)N[C@@H]1C2CCC(/C2=C/C2CC2)[C@@H]1C(=O)Nc1ccc(F)c(C(F)(F)F)c1 (some centres unmarked) is ____.
7.85

# pEC50 lookup, item COc1ccc(C#CCCCCO)cc1C(=O)N[C@@H]1C2CCC(/C2=C/C(F)(F)F)[C@@H]1C(=O)Nc1ccc(F)c(C(F)(F)F)c1 (some centres unmarked)
6.64

I have this compound here, COc1ccc(C(C)CCO)cc1C(=O)N[C@@H]1C2CCC(/C2=C/C(F)(F)F)[C@@H]1C(=O)Nc1ccc(F)c(C(F)(F)F)c1 (single isomer, unassigned) [Example 60] , and I need its recorded pEC50.
6.19

====

# TARGET UNDER TEST: human RXFP1 (Homo sapiens)
# ASSAY PROCEDURE: hRXFP1 HEK293 cAMP assay (HTRF)
# CONDITION SET: HEK293 cells stably expressing human RXFP1, 30 min at room temperature
RECORDED ENDPOINT: pEC50
// returns pEC50 (minus log10 of molar concentration), number only

COc1ccc(C2CC(CO)C2)cc1C(=O)N[C@H]1[C@@H](C(=O)Nc2ccc(F)c(C(F)(F)F)c2)[C@H]2CC[C@@H]1/C2=C\C1CC1 (some centres unmarked) [Example 330] ... 7.10
COc1ccc(CCCNC(=O)OC(C)(C)C)cc1C(=O)N[C@@H]1C2CCC(/C2=C/C(F)(F)F)[C@@H]1C(=O)Nc1ccc(F)c(C(F)(F)F)c1 (some centres unmarked) [Example 109] ... 5.68
COc1ccc(COC2CC=CC2)cc1C(=O)N[C@H]1[C@@H](C(=O)Nc2ccc(F)c(C(F)(F)F)c2)[C@H]2CC[C@@H]1/C2=C\C1CC1 [Example 285] ... 6.65
COc1ccc(C2CC2CO)cc1C(=O)N[C@@H]1C2CCC(/C2=C/C(F)(F)F)[C@@H]1C(=O)Nc1ccc(F)c(C(F)(F)F)c1 (single isomer, unassigned) [Example 65] ... 6.60

Field request: pEC50 | item: COc1ccc(C[C@H]2C[C@H](O)C2)cc1C(=O)N[C@H]1[C@@H](C(=O)Nc2ccc(F)c(C(F)(F)F)c2)[C@H]2CC[C@@H]1/C2=C\C(F)(F)F [Example 279]
7.74

Origin of values: patent US20250268903A1
